Source of measurements: patent US20260317356A1

- Experimental system: UniProt:O15527
- Procedure details: Biochemical fluorescence assay to measure enzymatic activity of hOGG1 (OGG1/APEX IC50)
- Parameters: Protein His-hOGG1 (12-323) was prepared; His (N); host or cells: E. coli
- Test context: 1 nM OGG1+2 nM APEX+6 nM dsDNA (8-oxo-dG substrate); pH 7.5; RT 40 min; read-out: OGG1/APEX IC50
Value type: IC50

// below: answered molecules
{"Molecule": "COc1cc(NC(=O)[C@H]2CC[C@@H](N3Cc4c(cccc4C(F)F)C3=O)CC2)ccc1C [Example 172]", "IC50": "1000 to 10000 nM"}
{"Molecule": "Cc1cccc2c1CN([C@H]1CC[C@@H](C(=O)Nc3cc[nH]c(=O)c3)CC1)C2=O [Example 250]", "IC50": "> 10000 nM"}
{"Molecule": "COc1cc(NC(=O)[C@H]2CC[C@@H](N3Cc4c(C)ccc(OC)c4NC3=O)CC2)ccc1C [Example 47]", "IC50": "< 100 nM"}
{"Molecule": "COc1cc(NC(=O)[C@@H]2[C@@H]3C[C@@H](N4Cc5c(Br)cccc5C4=O)C[C@@H]32)ccc1C [Example 213]", "IC50": "1000 to 10000 nM"}
{"Molecule": "COc1cc(NC(=O)[C@H]2CC[C@@H](N3Cc4c(C)ccc(N5CC(C)(C#N)C5)c4NC3=O)CC2)ccc1C [Example 34]", "IC50": "100 to 1000 nM"}

Would you kindly share the measured IC50 for COc1cc(NC(=O)[C@H]2CC[C@@H](N3Cc4c(C)cccc4C3=O)CC2)ccc1C [Example 153] ? 100 to 1000 nM

Now give it for CCc1ccc(NC(=O)[C@H]2CC[C@@H](N3Cc4c(C)cccc4NC3=O)CC2)cc1C#N [Example 94] too. 100 to 1000 nM

Now give it for COc1cc(NC(=O)[C@H]2CC[C@@H](N3Cc4c(C)cc(NCC5(O)CNC5)cc4C3=O)CC2)ccc1C [Example 136] too. < 100 nM

Now give it for COc1cc(NC(=O)[C@H]2CC[C@@H](N3Cc4c(C)cc(CNC(C)=O)cc4NC3=O)CC2)ccc1C [Example 27] too. < 100 nM

Now give it for COc1cc(NC(=O)[C@H]2CC[C@@H](N3Cc4c(C)cccc4C3=O)CC2)ccc1C(F)(F)F [Example 258] too. 100 to 1000 nM

Now give it for Cc1ccc(NC(=O)[C@H]2CC[C@@H](N3Cc4c(C)cccc4C3=O)CC2)cc1C#N [Example 218] too. 1000 to 10000 nM

====

- Experimental system: hOGG1 (Homo sapiens)
- Sequence (O15527 12-323): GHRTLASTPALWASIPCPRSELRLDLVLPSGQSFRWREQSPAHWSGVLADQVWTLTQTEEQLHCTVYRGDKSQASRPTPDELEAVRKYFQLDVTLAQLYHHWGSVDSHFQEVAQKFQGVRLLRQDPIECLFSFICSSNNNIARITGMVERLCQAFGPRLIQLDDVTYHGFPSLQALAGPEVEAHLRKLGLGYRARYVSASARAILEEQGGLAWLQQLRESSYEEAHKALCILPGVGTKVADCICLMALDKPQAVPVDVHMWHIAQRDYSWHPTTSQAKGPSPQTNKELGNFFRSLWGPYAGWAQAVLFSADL
- Procedure details: Biochemical fluorescence assay to measure enzymatic activity of hOGG1 (OGG1/APEX IC50)
- Parameters: Protein His-hOGG1 (12-323) was prepared; His (N); host or cells: E. coli
- Test context: 1 nM OGG1+2 nM APEX+6 nM dsDNA (8-oxo-dG substrate); pH 7.5; RT 40 min; read-out: OGG1/APEX IC50
Value type: IC50

{"Compound smiles": "COc1cc(NC(=O)[C@H]2CC[C@@H](N3Cc4c(C)ccc(C)c4NC3=O)CC2)ccc1C", "IC50": "< 100 nM"}

Would you kindly share the measured IC50 for Cc1cccc2c1CN([C@H]1CC[C@@H](C(=O)Nc3ccc4cnn(C)c4c3)CC1)C2=O ? 1000 to 10000 nM

Now give it for Cc1cccc2c1CN([C@H]1CC[C@@H](C(=O)Nc3nc4ccccc4[nH]3)CC1)C2=O too. 100 to 1000 nM

Now give it for COc1cc(NC(=O)[C@H]2CC[C@@H](N3Cc4c(C)cc(O)cc4C3=O)CC2)ccc1C too. < 100 nM
